- targetDesc: α‐FXIIa (Homo sapiens, UniProt P00748)
- Construct: purchased Enzyme Research Laboratories (Swansea, UK)
- Sequence (P00748 373-615 limits assumed): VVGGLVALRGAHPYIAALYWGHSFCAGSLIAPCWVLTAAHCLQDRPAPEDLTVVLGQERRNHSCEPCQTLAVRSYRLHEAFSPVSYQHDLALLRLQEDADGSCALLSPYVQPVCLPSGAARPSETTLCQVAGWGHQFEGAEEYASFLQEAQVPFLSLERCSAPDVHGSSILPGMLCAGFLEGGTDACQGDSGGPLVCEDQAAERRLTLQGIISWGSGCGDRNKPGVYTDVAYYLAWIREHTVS
- Sequence (P00748 20-372 partner limits assumed): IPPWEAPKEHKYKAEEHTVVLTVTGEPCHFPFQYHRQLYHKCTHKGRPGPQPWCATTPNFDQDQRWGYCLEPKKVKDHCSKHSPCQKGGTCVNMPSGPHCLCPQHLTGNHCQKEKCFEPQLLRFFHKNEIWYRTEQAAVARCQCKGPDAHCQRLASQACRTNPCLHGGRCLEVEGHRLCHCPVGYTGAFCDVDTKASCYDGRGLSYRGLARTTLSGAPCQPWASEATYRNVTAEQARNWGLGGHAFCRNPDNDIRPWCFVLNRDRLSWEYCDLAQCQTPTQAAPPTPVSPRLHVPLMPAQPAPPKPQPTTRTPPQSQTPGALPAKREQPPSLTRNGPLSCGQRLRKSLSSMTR
- assay: α‐FXIIa enzymatic assay (S‐2302 chromogenic substrate cleavage, pNA release)
- Type: biochemical
- particulars: synthetic peptides 10^−6 M to 10^−3 M, 200 μM S‐2302, 10 nM α‐FXIIa, 33 °C, initial rate; SE of the fit, n = 3–5 independent experiments; SEM
Where no end group is shown, it is not given here.
outcomeMeasure: IC50

Tell me its IC50 given RWYVTSRTAGIGPRLPWPELKR [CTI(21–42)] as the entry.
200 µM

Tell me its IC50 given RWYVTSRTAGIGPRLPWPELKRR [CTI(21–43)] as the entry.
457 µM

Tell me its IC50 given YVTSRTAGIGPRLPWPELKRR [CTI(23–43)] as the entry.
1150 µM

Data origin, for the record: paper PMC5638086
